Target: T1, hOX40-EC-His (human, UniProt P43489 29-214)
T1 construct: extracellular domain; bought protein; also called recombinant human OX40 antigen protein; human OX40 extracellular segment antigen; not shown: 6 His label
T1 sequence (looked up): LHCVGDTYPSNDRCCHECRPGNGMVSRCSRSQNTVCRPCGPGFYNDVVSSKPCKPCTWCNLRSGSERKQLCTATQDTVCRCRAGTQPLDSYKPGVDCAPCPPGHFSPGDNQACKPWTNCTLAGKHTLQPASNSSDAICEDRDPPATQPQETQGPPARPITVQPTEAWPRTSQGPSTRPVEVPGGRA
Test: ELISA, supernatant diluted 100 times, coated OX40 (CK60)
Task for the reader: assign each of the following binders its reported 450 nm light absorption.
One number for each entry, in OD450.

>  <BINDER>
38D9-12 (antibody, V domains shown, hybridoma antibody, tested as culture supernatant) VH: QVQLQESGPGLVKPSGTLSLTCAVSGDSISSTNWWSWVRQPPGKGLEWIGEINHNGSTYYNPSLKSRVTISVDKSKNQFSLKLRSVTAADTAVYYCAREDYYYMDVWGKGTTVTVSS VL: DIQMTQSPSSLSASVGDRVTITCRTSQGIWNDLGWYQQKPGKAPKRLIYAASSLQSGVPSRFSGSESGTEFTLTISSLQPEDFATYYCLQYNNYPLTFGGGTKVEIKR

>  <MEASUREMENT_UNIT>
OD450

>  <450 nm light absorption>
2.1

$$$$

Here is the next item to consider.
Ask: Entry 20D2-12 (antibody, V domains shown, hybridoma antibody, tested as culture supernatant) VH: QVQLVESGGGLVKPGGSLRLSCAASGFTFSDYYMSWIRQAPGRGLEWISYISGSDSTIYYEDSVMGRFTISRDNAKNSLYLQMNSLRAEDTAVYYCARDRDVYGYSGYGYFDYWGQGTLVTVSS VL: EIVLTQSPGTLSLSPGERATLSCRASQSVSSRYLAWYQQKPGQAPRLLIYGASNRATGMPDRFSGSGSGTDFTLTISRLEPEDFAVYYCQQYGSSPITFGQGTRLEIKR : reported 450 nm light absorption = ?
Reply: 2.32

Source listed as patent US20240209104A1.
